Taken from the supplement of paper PMC6555819.

# Test system: LXRa:RXRa (NR concentration 270 nM, RXRa partner concentration 90 nM)
# assay details: PBM binding z-score (relative to random genomic background probes); higher = stronger binding; sequences stand for … in GC…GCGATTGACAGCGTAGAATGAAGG
measure: PBM binding z-score
# respond with the number and nothing more

PBM binding z-score measured on `GCGACTGGGGCATCAGAAGGTTACCATAACTTAA` = 0.0873

PBM binding z-score measured on `TCTAGTTGGCCACGGAGGTCACACACGACGGGTA` = 2.79

PBM binding z-score measured on `GCTATTAGTTAAAAGGGCAACCGAATGATTCTCG` = 0.439

PBM binding z-score measured on `TTATATAGGTAATACAGGTGAAAGTCGGCATCTA` = 1.12

PBM binding z-score measured on `GGAACGAGGGCATTCGCGTTGATAGCATGGCGAT` = 1.04

PBM binding z-score measured on `TCTGCTAGGTCAACGATGGTCAACTAATCTGCTA` = 3.21

PBM binding z-score measured on `CAAACTCGGTCACGAAAGGTCAAAGTCGAATGAC` = 7.32

PBM binding z-score measured on `AATACAGGGTCATCGTAGGCCCGAGTACGCACAG` = 5.81

PBM binding z-score measured on `TCTAGCAGGCCAGAGTGTCACTCAAGAGGTACGG` = -0.311

PBM binding z-score measured on `AGAATGAGGTTATTAAGACCAGGGAATTGCGGTC` = 1.52

PBM binding z-score measured on `TCAGACAGGTGTAGGTAACTCAGGTACGCAGTCG` = 1.02

PBM binding z-score measured on `CCGAATGGGGCAAGGTTACCATAACGCACAGCCA` = 0.895

PBM binding z-score measured on `AATACAGGGTCATCGTAGGCCAGAATACGCACAG` = 6.31

PBM binding z-score measured on `TCATATAGGTAAAGGAGAAAGTCGAACGATATGA` = 0.393

PBM binding z-score measured on `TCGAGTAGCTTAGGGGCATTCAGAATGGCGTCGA` = -0.0309

PBM binding z-score measured on `TCTATAAGTTGATTAGGGCAACCGAAACAGCGGA` = 0.285

PBM binding z-score measured on `CCTCGTAGGACAGAAGGTCAGAGCTGTCCGCTTT` = 1.85

PBM binding z-score measured on `TCAGACAGGTGAAGGTAAATCAGGTACGCAGTCG` = 1.37

PBM binding z-score measured on `CTACCAAGGTGATCAAGGTCGTTGATTACTATTC` = 0.837

PBM binding z-score measured on `TCTCGGAGGACACGAAAGGTCAAAGCTCGACATC` = 5.45

PBM binding z-score measured on `GGAACGAGGGCATTCGAGTTGTTAGCATGGCGAT` = 0.548

PBM binding z-score measured on `TGAATGAGGTTATAAGATCAGAGAACGTTGCAAA` = 1.23

PBM binding z-score measured on `GATGCAGGGTCAGCTAGAGGCCAGAGTATGGAAA` = 2.59

PBM binding z-score measured on `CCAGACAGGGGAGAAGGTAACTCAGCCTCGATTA` = -0.331

PBM binding z-score measured on `CGTCCAAGTTCAAAGGTCAGTGAAGAGATGACGG` = 5.86

PBM binding z-score measured on `CCTTACGGGTCAAGGTTAGAGCACGGGTGGTACG` = 3.41

PBM binding z-score measured on `GCTATTAGTTGAAAGGTCAACCGAATGATTCTCG` = 6.07

PBM binding z-score measured on `TCTCGGAGGACACGGAGGTCAGAGCTTTCCAGAG` = 1.54

PBM binding z-score measured on `GTACCAAGGTGAATAGGTCGTAGATGAGTAGGCG` = 0.897

PBM binding z-score measured on `TGAATGTGGTTAAAGATCAGGGAACGTGGCGTCG` = -0.264

PBM binding z-score measured on `AGAATGAGGTTAAGATCAGCGAAACAGAATACAT` = 1.69

PBM binding z-score measured on `AGTCAAAGTTCAGGACCAGGTAACGTAAAGCACG` = 3.63

PBM binding z-score measured on `TCGATTAGGTTAGGGGCATTCAGAATGGCGTCGA` = 0.542

PBM binding z-score measured on `TGAATGAGGTTAAAGATCAGGGTACGTGGCGTCG` = 2.35
